Some compounds, each annotated with its measured growth inhibition.
# assay_info: NCI Yeast Anticancer Drug Screen. Data for the mlh1 rad18 strain (AID 175)
# study_conditions: S. cerevisiae mlh1 rad18 strain growth inhibition, stronger effect = higher value; at 50.0 µM unless noted
This is part of a sample that, as a whole, favours compounds with a hit. Of some 79,000 tested, about 15% had one in any assay.
Just the number in %, nothing appended.

Sample records with growth inhibition:
{"smiles_string": "Cn1nnnc1NCc1ccccc1", "measurement_unit": "%", "reported": 5.15}
{"smiles_string": "COc1ccc2[nH]c3cc4c(=O)c5cc(OC)ccc5[nH]c4cc3c(=O)c2c1", "measurement_unit": "%", "reported": -37.6}
{"smiles_string": "O=c1c(O)c(-c2cc(O)c(O)c(O)c2)oc2cc(O)cc(O)c12", "measurement_unit": "%", "reported": -8.55}

Req: Item COc1ccc(C(=O)CCC2(C)OCCO2)cc1OC has what recorded growth inhibition?
Resp: 17.5

Req: Would you mind telling me what growth inhibition value was observed for CC(=O)Nc1cc(Cl)ccc1[N+](=O)[O-] ?
Resp: 5.95

###

# assay_info: NCI Yeast Anticancer Drug Screen. Data for the cln2 rad14 strain (AID 165);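 further: 0% = growth equal to vehicle treated cultures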
# study_conditions: S. cerevisiae cln2 rad14 strain, stronger effect = higher value; at 50.0 µM unless noted
# Description: Growth inhibition of yeast strains with defined genetic alterations is measured as a screen for potential anti-cancer activity. Selected strains with alterations in DNA damage repair or cell cycle control were exposed to compounds and growth inhibition was measured relative to vehicle treated controls. The strain used in this assay is cln2 rad14
The panel holds about 79,000 compounds, 15% with a hit somewhere; the sample as a whole holds those more often. The source made the active and inactive calls. Cut-off read from the data, not from the text of the source: active = growth inhibition above about 70%; inactive = the rest.
measurement_name: growth inhibition

These recorded examples may help you get a feel for the data.
{"compound": "COc1cccc(C(=O)c2ccncc2C)c1OC", "growth inhibition": "-7.95% (inactive)"}
{"compound": "O=[N+]([O-])c1cc(COc2ccc(Cl)c(Cl)c2)ccc1Cl", "growth inhibition": "-0.95% (inactive)"}
{"compound": "CCOC(=O)C(SC(S(=O)(=O)c1ccccc1)S(=O)(=O)c1ccccc1)C(=O)OCC", "growth inhibition": "21.6% (inactive)"}

Req: Quick one: growth inhibition of N#CC(C#N)N=O (tested in a mixture with another compound) ?
Resp: -19.7% (inactive)

Req: Find the recorded growth inhibition belonging to CCC(C)C(C#N)(CCN(CC)CC)c1ccccc1 (stereo unspecified) and report it.
Resp: 7.3% (inactive)

###

# assay_info: NCI Yeast Anticancer Drug Screen. Data for the rad50 strain (AID 155);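 further: 0% = growth of vehicle-only cultures of the same strain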
# study_conditions: S. cerevisiae rad50 strain growth inhibition; at 50.0 µM unless noted
The panel holds about 79,000 compounds, 15% with a hit somewhere; the sample as a whole holds those more often. The source made the active and inactive calls. Rule as the data show it: active = growth inhibition above about 70%; inactive = the rest.
Log the outcome using a class from active, inactive

// known answers, use as guide
{"molecule": "O=c1c2cncnc2sc2nc3ccccc3n12", "class_label": "inactive"}
{"molecule": "C/C(=N\\NC(=S)N1CCC(N2CCCCC2)CC1)c1ccccn1", "class_label": "active"}
{"molecule": "COC(=O)CCSCc1ccccc1", "class_label": "inactive"}

Req: Identify the outcome logged in this assay for the molecule shown: S=c1[nH]nc2scnn12
Resp: inactive

Req: Status in this test for COCCCC(=O)CNC(C)C ?
Resp: inactive

Req: What did the test return for CCCCC/C([O-])=C1/C(=O)N(c2ccccc2)N=C1C.CCCCC/C([O-])=C1/C(=O)N(c2ccccc2)N=C1C.[Cu+2] ?
Resp: inactive
